Numbers sourced from ChEMBL document CHEMBL3988442.

Record form. Attribute: Percent Effect. Fill in for each entry.
- Test system: Wolbachia pipientis
- ASSAY COMMENT: Anti-Wolbachia Cell-Based Screen
- Assay type: functional
- Design: scale not given: in the data most compounds retested in dose-response had high values
- STATED CONDITIONS: 5 µM
Out of some 48,000 compounds screened, about 13,000 (27%) showed an effect of 50% or more. The list shows a part of the results.
Answers are plain numbers, in %.

Exercise: Please give the measured Percent Effect for this compound: CCCn1cc(C(=O)NCC(=O)NC2CC2)c(C)n1
Key: 8.869

Exercise: Please give the measured Percent Effect for this compound: O=S1(=O)CCC(n2cc(C3=CCN(CCc4ccccc4)CC3)cn2)C1 (configuration not stated)
Key: -5.355

Exercise: Please give the measured Percent Effect for this compound: COCC(=O)NC[C@H]1C[C@@H]2CCN1C[C@@H]2c1cc(-c2cccs2)nn1C
Key: -7.322

Exercise: Please give the measured Percent Effect for this compound: CC(Cc1c(F)cccc1F)NC(=O)Nc1cnn(CC(N)=O)c1 (configuration not stated)
Key: 0.8263

Exercise: Please give the measured Percent Effect for this compound: Clc1ccccc1CNC(Cn1cncn1)c1ccccc1 (configuration not stated)
Key: -5.969

Exercise: Please give the measured Percent Effect for this compound: O=C(O)C(F)(F)F.O=C(O)C(F)(F)F.O=C(O)C(F)(F)F.O=C(O)C(F)(F)F.c1cc(CN2C[C@@H]3OCCN(CCN4CCCC4)[C@@H]3C2)ccn1
Key: 0.06106

Exercise: Please give the measured Percent Effect for this compound: Cn1cc(CN2C[C@@H]3[C@@H](C2)OCC(=O)N3Cc2ccncc2)cn1
Key: -7.726

Exercise: Please give the measured Percent Effect for this compound: COc1ccc(CC(=O)N2CCN(Cc3ccco3)C[C@@H]2C)cc1OC
Key: 120.6

Exercise: Please give the measured Percent Effect for this compound: COc1ccc(CC(=O)N2CCN(Cc3ccco3)C[C@H]2C)cc1OC
Key: 147.8

Exercise: Please give the measured Percent Effect for this compound: COc1ccc(CC(=O)N2CCN(Cc3ccco3)C[C@@H]2C)cc1
Key: 137.5

Batch of 5 compounds: report Percent Effect for each.
1. CC(C)S(=O)(=O)N1C[C@@H](c2ccccc2)[C@H]2[C@H]1CCCCCN2C
2. CCC1=N[C@@]2(CC[C@@H]3CN(CC)C[C@@H]32)C(=O)N1C
3. COc1cccc(CC(C)NC(=O)NCc2ccn(C)c2)c1 (configuration not stated)
4. O=C(O)C(F)(F)F.O=C(O)C(F)(F)F.O=C1CO[C@@H]2CN(Cc3cccs3)C[C@H]2N1Cc1ccncc1
5. Cn1cc(C(=O)N2CC[C@@H]3[C@@H]2CCN3Cc2ccncc2)cn1.O=C(O)C(F)(F)F.O=C(O)C(F)(F)F

Key:
1. 189.5
2. 107.7
3. -0.6382
4. -4.405
5. 8.346

Batch of 7 compounds: report Percent Effect for each.
1. COc1cccc(CC(=O)N2CCCSCC2CN2CCCC2)c1 (configuration not stated)
2. O=C(NC[C@H]1C[C@@H]2CCN1C[C@@H]2CN1CCCCC1)Nc1ccsc1
3. Cc1noc(C)c1CN1CCO[C@H]2[C@H](Oc3ccccn3)CC[C@@H]21.O=C(O)C(F)(F)F.O=C(O)C(F)(F)F
4. O=C1CO[C@H]2CN(C3CCOCC3)C[C@H]2N1Cc1ccccn1
5. CCCn1cc(C(=O)NCCS(N)(=O)=O)c2ccccc21
6. O=C1CO[C@H]2CN(C3CCOCC3)C[C@H]2N1Cc1ccncc1
7. CC1=N[C@@]2(CC[C@@H]3CN(CC(C)C)C[C@@H]32)C(=O)N1

Key:
23.31
3.271
-5.059
-4.247
15.61
-21.59
-12.28
